Values compiled from patent US20120135923A1.

Each item that follows carries a reported pKi.
molecular target: hMC1-R (human); test: competition with [125I]-NDP-α-MSH, CHO-K1 membranes
Interpret pKi as the negative base-10 log of the concentration measured in mol/L.

Take a look at these entries with their results.
Ac-Cha-c(Asp-His-D-2-Nal-Arg-Trp-Gaba-Lys)-NH2 (peptide) | 9.24
Ac-Nle-c(Asp-His-D-2-Nal-Arg-Trp-β-Ala-Lys)-NH2 (peptide) | 9.19
Ac-D-Arg-c(Cys-D-Ala-His-D-Phe-Arg-Trp-Pen)-NH2 (peptide) | 8.08
Ac-Nle-c(Cys-D-Ala-His-D-2-Nal-Arg-Bal-Cys)-NH2 (peptide) | 7.65
Ac-Nle-c(Cys-3-Pal-D-Phe-Arg-Trp-Gaba-Cys)-NH2 (peptide) | 7.68

API: the following record is the query input.
Fill blank: measured pKi of the substance Ac-hPhe-c(Asp-His-D-2-Nal-Arg-Trp-Gaba-Lys)-NH2 (peptide) is ____.
9.34

----------
biological target: hMC4-R (human); assay: cell-based or functional assay
REPORTED_PROPERTY: cAMP EC50 (nM)
Give the value in nM but do not write nM after it.

Take a look at these entries with their results.
Hydantoin(C(O)-(Arg-Gly))-c(Cys-D-Ala-His-D-Phe-Arg-Trp-Cys)-NH2 (peptide; unit assumed) | 0.503
Ac-Arg-c(Asp-His-D-Phe-Arg-Trp-Ala-Lys)-NH2 (peptide; unit assumed) | 0.055

What reported cAMP EC50 corresponds to Ac-Cha-c(Asp-His-D-Phe-Arg-Trp-Gaba-Lys)-NH2 (peptide; unit assumed) on hMC4-R (human)?
0.0949

What reported cAMP EC50 corresponds to Ac-hCha-c(Asp-His-D-Phe-Arg-Trp-Gaba-Lys)-NH2 (peptide; unit assumed) on hMC4-R (human)?
7.24

What reported cAMP EC50 corresponds to Ac-Nle-c(Asp-His-D-Phe-Arg-Trp-β-Ala-Lys)-NH2 (peptide; unit assumed) on hMC4-R (human)?
0.128

What reported cAMP EC50 corresponds to Hydantoin(C(O)-(Gly-Gly))-c(Cys-D-Ala-His-D-Phe-Arg-Trp-Cys)-NH2 (peptide; unit assumed) on hMC4-R (human)?
0.336

----------
molecular target: hMC4-R (human); experiment: cell-based or functional assay
Bridge positions count the residues as written; N and C are the ends. Square brackets hold non-standard residues; d marks the D form. 2Nal = N[C@@H](Cc1ccc2ccccc2c1)C(=O)O; d2Nal = N[C@H](Cc1ccc2ccccc2c1)C(=O)O
Each item that follows carries a reported cAMP Kb.
Answer as a number with no unit attached.

Take a look at these entries with their results.
Ac-Nle-c(Asp-His-D-2-Nal-Arg-Trp-Lys)-β-Ala-Tyr-Gly-Arg-Lys-Lys-Arg-Arg-Gln-Arg-Arg-Arg-NH2 (peptide; in nM (unit assumed)) | 4.07
Ac-CEH[d2Nal]R[2Nal]ACPPKD-NH2 (disulfide 1-8) | 12.2
Ac-c(Cys-Glu-His-D-2-Nal-Arg-Trp-Ala-Cys)-Pro-Pro-Lys-Asp-β-Ala-Tyr-Gly-Arg-Lys-Lys-Arg-Arg-Gln-Arg-Arg-Arg-NH2 (peptide; in nM (unit assumed)) | 1.66

API: the following record is the query input.
Fill blank: measured cAMP Kb of the substance Ac-Nle-c(Asp-His-D-2-Nal-Arg-Trp-Lys)-β-Ala-β-Ala-Tyr-Gly-Arg-Lys-Lys-Arg-Arg-Gln-Arg-Arg-Arg-NH2 (peptide; in nM (unit assumed)) is ____.
7.94

----------
target: hMC1-R (human) (UniProt Q01726); experiment: cell-based or functional assay
Sequence (Q01726 whole entry): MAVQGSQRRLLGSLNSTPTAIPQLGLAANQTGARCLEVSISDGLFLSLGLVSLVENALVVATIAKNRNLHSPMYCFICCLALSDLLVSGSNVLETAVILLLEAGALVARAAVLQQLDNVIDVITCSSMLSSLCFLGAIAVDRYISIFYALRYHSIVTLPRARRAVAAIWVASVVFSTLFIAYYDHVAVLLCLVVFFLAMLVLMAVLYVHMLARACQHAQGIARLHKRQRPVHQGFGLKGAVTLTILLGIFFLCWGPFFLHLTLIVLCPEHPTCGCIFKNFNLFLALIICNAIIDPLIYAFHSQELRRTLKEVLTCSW
REPORTED_PROPERTY: log10 cAMP EC50 (log10 of the value in µM)
Could you please treat all values as log10 of cAMP EC50 in µM?

Take a look at these entries with their results.
Ac-Nle-c(Cys-D-Ala-His-D-Phe-Arg-Trp-Pen)-NH2 (peptide; unit assumed) | -1.84
Hydantoin(C(O)-(D-Arg-Gly))-c(Cys-Glu-His-D-Phe-Arg-Trp-Cys)-NH2 (peptide; unit assumed) | -1.74
Hydantoin(C(O)-(Ala-Gly))-c(Cys-D-Ala-His-D-Phe-Arg-Trp-Cys)-NH2 (peptide; unit assumed) | -1.75

Fill blank: measured log10 cAMP EC50 of the substance Ac-Nle-c(Asp-His-D-Phe-Arg-Trp-β-Ala-Lys)-NH2 (peptide; unit assumed) is ____.
-3.08

Fill blank: measured log10 cAMP EC50 of the substance Ac-1-Nal-Arg-c(Cys-D-Ala-His-D-Phe-Arg-Trp-Cys)-NH2 (peptide; unit assumed) is ____.
-2.06

----------
target: hMC4-R (human) (UniProt P32245); experiment: competition with [125I]-NDP-α-MSH, CHO-K1 membranes
Sequence (P32245 whole entry): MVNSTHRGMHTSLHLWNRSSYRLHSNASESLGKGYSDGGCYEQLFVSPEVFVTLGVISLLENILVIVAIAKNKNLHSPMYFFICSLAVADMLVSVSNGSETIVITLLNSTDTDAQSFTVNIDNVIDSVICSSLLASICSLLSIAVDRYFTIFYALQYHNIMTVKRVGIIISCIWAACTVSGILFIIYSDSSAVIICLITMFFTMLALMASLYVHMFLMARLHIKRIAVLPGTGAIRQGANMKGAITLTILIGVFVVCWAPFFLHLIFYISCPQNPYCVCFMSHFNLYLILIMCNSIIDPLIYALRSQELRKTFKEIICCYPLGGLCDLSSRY
REPORTED_PROPERTY: Ki (nM)
Give the value in nM but do not write nM after it.

Take a look at these entries with their results.
Ac-Cha-c(Asp-His-D-2-Nal-Arg-Trp-Gaba-Lys)-NH2 (peptide) | 2.82
Ac-Nle-c(Cys-D-Ala-His-D-2-Nal-Arg-Bal-Cys)-NH2 (peptide) | 16.6

Fill blank: measured Ki of the substance Ac-hPhe-c(Asp-His-D-2-Nal-Arg-Trp-Gaba-Lys)-NH2 (peptide) is ____.
0.931

----------
target: hMC5-R (human); assay: cell-based or functional assay
Bridge positions count the residues as written; N and C are the ends. Square brackets hold non-standard residues; d marks the D form. 1Nal = N[C@@H](Cc1cccc2ccccc12)C(=O)O; d2Nal = N[C@H](Cc1ccc2ccccc2c1)C(=O)O
Rule: cAMP EC50 under 200 nM gives Not satisfied, otherwise Satisfied.

Ac-Nle-c(Cys-D-Ala-His-D-Phe-Arg-Trp-Pen)-NH2 (peptide; unit assumed) | Satisfied
Ac-Nle-c(Asp-His-D-Phe-Arg-Trp-β-Ala-Lys)-NH2 (peptide; unit assumed) | Not satisfied
Ac-Nle-c(Asp-His-D-2-Nal-Arg-Trp-Lys)-β-Ala-β-Ala-Tyr-Gly-Arg-Lys-Lys-Arg-Arg-Gln-Arg-Arg-Arg-NH2 (peptide; unit assumed) | Not satisfied

Kindly determine if cAMP EC50 recorded for Ac-Arg-c(Cys-D-Ala-His-D-Phe-Arg-Trp-Pen)-NH2 (peptide; unit assumed) is above or exactly 200 nM.
Satisfied

Kindly determine if cAMP EC50 recorded for Ac-D-Arg-c(Cys-D-Ala-His-D-Phe-Arg-Trp-Cys)-NH2 (peptide; unit assumed) is above or exactly 200 nM.
Satisfied

Kindly determine if cAMP EC50 recorded for Ac-D-Arg-c(Cys-D-Ala-His-D-Phe-Arg-Trp-Pen)-NH2 (peptide; unit assumed) is above or exactly 200 nM.
Satisfied

Kindly determine if cAMP EC50 recorded for Ac-c(Cys-Glu-His-D-2-Nal-Arg-Trp-Ala-Cys)-Pro-Pro-Lys-Asp-β-Ala-Tyr-Gly-Arg-Lys-Lys-Arg-Arg-Gln-Arg-Arg-Arg-NH2 (peptide; unit assumed) is above or exactly 200 nM.
Not satisfied

Kindly determine if cAMP EC50 recorded for Ac-Tyr-Arg-c(Cys-D-Ala-His-D-Phe-Arg-Trp-Cys)-NH2 (peptide; unit assumed) is above or exactly 200 nM.
Satisfied

Kindly determine if cAMP EC50 recorded for Ac-CEH[d2Nal]R[1Nal]ACPPKD-NH2 (disulfide 1-8) is above or exactly 200 nM.
Not satisfied

Kindly determine if cAMP EC50 recorded for Ac-1-Nal-Arg-c(Cys-D-Ala-His-D-Phe-Arg-Trp-Cys)-NH2 (peptide; unit assumed) is above or exactly 200 nM.
Satisfied

Kindly determine if cAMP EC50 recorded for Ac-Nle-c(Cys-D-Cha-His-D-Phe-Arg-Trp-Cys)-NH2 (peptide; unit assumed) is above or exactly 200 nM.
Not satisfied

----------
Each item that follows carries a reported cAMP Kb.
molecular target: hMC4-R (human) (UniProt P32245); test: cell-based or functional assay
Bridge positions count the residues as written; N and C are the ends. Square brackets hold non-standard residues; d marks the D form. 1Nal = N[C@@H](Cc1cccc2ccccc12)C(=O)O; d2Nal = N[C@H](Cc1ccc2ccccc2c1)C(=O)O
Answer as a number with no unit attached.

Take a look at these entries with their results.
Ac-CEH[d2Nal]R[1Nal]ACPPKD-NH2 (disulfide 1-8) | 5.92
Nle-c(Asp-His-D-2-Nal-Arg-Trp-Lys)-β-Ala-Tyr-Gly-Arg-Lys-Lys-Arg-Arg-Gln-Arg-Arg-Arg-NH2 (peptide; in nM (unit assumed)) | 18.5

API: the following record is the query input.
What reported cAMP Kb corresponds to Ac-c(Cys-Glu-His-D-2-Nal-Arg-Bal-Ala-Cys)-Pro-Pro-Lys-Asp-NH2 (peptide; in nM (unit assumed)) on hMC4-R (human) (UniProt P32245)?
4.56
